- Experiment: Cytotoxicity against human MT4 cells assessed as reduction in cell viability after 4 to 5 days by Cell-Titer Glo assay
- Format: cell-based
- Experimental setup: MT4 cells

| Molecule | Inequality operator | CC50 [µM] |
| --- | --- | --- |
| CCC(CC)OC(=O)[C@H](C)NP(=O)(OC[C@H]1O[C@@](C#N)(c2ccc3c(N)ncnn23)[C@H](O)[C@@H]1O)Oc1ccccc1 (some centres undefined) | > | 100 |
| CC(C)OC(=O)[C@H](C)NP(=O)(OC[C@H]1O[C@@](C#N)(n2ccc(N)nc2=O)[C@H](O)[C@@H]1O)Oc1ccccc1 (some centres undefined) | = | 53 |
| CCOC(=O)[C@H](C)NP(=O)(OC[C@H]1O[C@@](C#N)(c2ccc3c(N)ncnn23)[C@H](O)[C@@H]1O)Oc1ccccc1 (some centres undefined) | = | 13 |
| C#C[C@@]1(c2ccc3c(N)ncnn23)O[C@H](COP(=O)(N[C@@H](C)C(=O)OCC(CC)CC)Oc2ccccc2)[C@@H](O)[C@H]1O (some centres undefined) | > | 32 |
| CCC(CC)COC(=O)[C@H](C)NP(=O)(OC[C@H]1O[C@@](C#N)(c2ccc3c(N)ncnn23)[C@](C)(O)[C@@H]1O)Oc1ccccc1 (some centres undefined) | = | 1.4 |
| CCC(CC)COC(=O)[C@@H](C)NP(=O)(OC[C@H]1O[C@@](C#N)(c2ccc3c(N)ncnn23)[C@H](O)[C@@H]1O)Oc1ccccc1 (some centres undefined) | = | 42 |
| C[C@H](N[P@](=O)(OC[C@H]1O[C@@](C#N)(c2ccc3c(N)ncnn23)[C@H](O)[C@@H]1O)Oc1ccccc1)C(=O)OCC(C)(C)C | = | 3 |
| CCC(CC)COC(=O)[C@H](C)N[P@](=O)(OC[C@H]1O[C@@](C#N)(c2ccc3c(N)ncnn23)[C@H](O)[C@@H]1O)Oc1ccccc1 (mixture of isomers) | = | 2 |
| N#C[C@@]1(n2cnc3c(N)ncnc32)O[C@H](CO)[C@@H](O)[C@H]1O | > | 53 |
| C[C@H](NP(=O)(OC[C@H]1O[C@@](C#N)(c2ccc3c(N)ncnn23)[C@H](O)[C@@H]1O)Oc1ccccc1)C(=O)OC1CCCC1 (some centres undefined) | = | 8.8 |
| Nc1ncnn2c([C@@H]3O[C@H](CO)[C@@H](O)[C@H]3O)ccc12 | < | 0.01 |
| CC(C)OC(=O)[C@H](C)N[P@](=O)(OC[C@H]1O[C@@](C#N)(c2ccc3c(N)ncnn23)[C@](C)(O)[C@@H]1OC(=O)C(C)C)Oc1ccccc1 | = | 7.8 |
| N#C[C@@]1(n2ccc(N)nc2=O)O[C@H](CO)[C@@H](O)[C@H]1O | > | 57 |
| C[C@H](NP(=O)(OC[C@H]1O[C@@](C#N)(c2ccc3c(N)ncnn23)[C@H](O)[C@@H]1O)Oc1ccccc1)C(=O)OC(C)(C)C (some centres undefined) | > | 100 |
| C[C@@]1(c2ccc3c(N)ncnn23)O[C@H](CO)[C@@H](O)[C@H]1O | = | 4.5 |
| CCOC(=O)[C@H](Cc1ccccc1)NP(=O)(OC[C@H]1O[C@@](C#N)(c2ccc3c(N)ncnn23)[C@H](O)[C@@H]1O)Oc1ccccc1 (some centres undefined) | = | 15 |
| C[C@@]1(O)[C@H](O)[C@@H](CO)O[C@@]1(C#N)c1ccc2c(N)ncnn12 | > | 57 |
| N#C[C@@]1(c2ccc3c(N)ncnn23)O[C@H](CO)[C@@H](O)[C@H]1O | > | 57 |
| C[C@H](NP(=O)(OC[C@H]1O[C@@](C#N)(c2ccc3c(N)ncnn23)[C@H](O)[C@@H]1O)Oc1ccccc1)C(=O)OC1CCC1 (some centres undefined) | = | 6 |
| C#C[C@@]1(c2ccc3c(N)ncnn23)O[C@H](CO)[C@@H](O)[C@H]1O | = | 120 |
| CCOC(=O)[C@H](C)NP(=O)(N[C@@H](C)C(=O)OCC)OC[C@H]1O[C@@](C#N)(c2ccc3c(N)ncnn23)[C@H](O)[C@@H]1O | > | 53 |
| CCOC(=O)[C@@H](NP(=O)(OC[C@H]1O[C@@](C#N)(c2ccc3c(N)ncnn23)[C@H](O)[C@@H]1O)Oc1ccccc1)C(C)C (some centres undefined) | > | 100 |
| N#C[C@@]1(c2ccc3c(N)ncnn23)O[C@H](CO)[C@@H](O)[C@H]1F | = | 32 |
| CC(C)OC(=O)[C@H](C)N[P@@](=O)(OC[C@H]1O[C@@](C#N)(c2ccc3c(N)ncnn23)[C@H](O)[C@@H]1O)Oc1ccccc1 | = | 21 |
